Each entry below lists one item and its recorded EC50 value.
Test system: Trypanosoma brucei
experiment_description: Antitrypanosomal activity against Trypanosoma brucei Lister 427 bloodstream forms in presence of 10% FBS after 24 hrs by celltiter glo assay
Format: functional, organism-based
condition_notes: Lister 427, 24 h

compound | quantity_unit | EC50
CCC(=O)CCCN1CCN(C(=O)Cc2ccccc2)C(c2ncc(-c3ccc4ccccc4c3)[nH]2)C1 (centres undefined) | µM | 1.8
CCC(=O)CCCN1CCN(C(=O)c2ccccc2)C(c2ncc(-c3ccc4ccccc4c3)[nH]2)C1 (centres undefined) | µM | 1.56
COc1ccc2[nH]c(C)c(CC(=O)N3CCN(C)CC3c3ncc(-c4ccc5ccccc5c4)[nH]3)c2c1 (centres undefined) | µM | 0.038
CCC(=O)CCCN1CCN(C(=O)Cc2c[nH]c3ncccc23)C(c2ncc(-c3ccc4ccccc4c3)[nH]2)C1 (centres undefined) | µM | 0.545

###

experiment_description: Cytotoxicity against human HeLa cells assessed as reduction in cell viability after 72 hrs by celltiter glo assay
Assay type: cell-based
Each entry below lists one item and its recorded CC50 at 72 h value.

molecule | CC50 at 72 h
COc1ccc2[nH]c(C)c(CC(=O)N3CCN(C)CC3c3ncc(-c4ccc5ccccc5c4)[nH]3)c2c1 (centres undefined) | > 25 µM
COc1ccc2[nH]c(C)c(CC(=O)N3CCN(CCCC(N)=O)CC3c3ncc(-c4ccc5ccccc5c4)[nH]3)c2c1 (centres undefined) | > 25 µM
CCC(=O)CCCN1CCN(C(=O)Cc2c[nH]c3ccccc23)[C@@H](c2ncc(-c3ccc4ccccc4c3)[nH]2)C1 | > 32 µM
CCC(=O)CCCN1CCN(C(=O)Oc2ccccc2)C(c2ncc(-c3ccc4ccccc4c3)[nH]2)C1 (centres undefined) | 16.6 µM

###

System: Trypanosoma brucei
experiment_description: Antitrypanosomal activity against Trypanosoma brucei Lister 427 bloodstream forms in presence of 10% FBS after 24 hrs by celltiter glo assay
Format: functional, organism-based
condition_notes: Lister 427, 24 h
pEC50: −log10 of the molar value.
Each entry below lists one item and its recorded pEC50 value.
readout_label: pEC50

compound | censoring_sign | measured
COC(=O)CCCN1CCN(C(=O)Cc2c(C)[nH]c3ccc(OC)cc23)C(c2ncc(-c3ccc4ccccc4c3)[nH]2)C1 (stereo not drawn) | = | 6.81
COc1ccc2[nH]c(C)c(CC(=O)N3CCN(CC4CCOC4)CC3c3ncc(-c4ccc5ccccc5c4)[nH]3)c2c1 (mixture of isomers) | = | 8.30
CCCCCCN1CCN(C(=O)Cc2c(C)[nH]c3ccc(OC)cc23)C(c2ncc(-c3ccc4ccccc4c3)[nH]2)C1 (stereo not drawn) | = | 7.10
COc1ccc2[nH]c(C)c(CC(=O)N3CCN(CC4CC4)CC3c3ncc(-c4ccc5ccccc5c4)[nH]3)c2c1 (stereo not drawn) | = | 7.80
CCC(=O)CCCN1CCN(C(C)=O)C(c2ncc(-c3ccc4ccccc4c3)[nH]2)C1 (stereo not drawn) | < | 4.60
CCC(=O)CCCN1CCN(C(=O)Nc2ccccc2)C(c2ncc(-c3ccc4ccccc4c3)[nH]2)C1 (stereo not drawn) | = | 5.84
CCC(=O)CCCN1CCN(C(=O)Cc2c(C)[nH]c3ccc(OC)cc23)C(c2ncc(-c3ccc4ccccc4c3)[nH]2)C1 (stereo not drawn) | = | 8.00
COc1ccc2[nH]c(C)c(CC(=O)N3CCN(CCCC(=O)O)CC3c3ncc(-c4ccc5ccccc5c4)[nH]3)c2c1 (stereo not drawn) | = | 5.96
